These data points were gathered from ChEMBL document CHEMBL1122681.

Experiment: volume of urine at 3 mg/kg
Format: ADME, organism-based
Parameters: dose 3 mg/kg
Conditions: in vivo
measuredMetric: Urine volume (mL)

INSERT INTO measurements (molecule, measuredmetric, unittag, readoutvalue) VALUES
  ('Cc1c(OCC(=O)O)cc2c(c1Cl)C(=O)C(C)(C1CCCC1)C2=O (stereo unspecified)', 'Urine volume', 'mL', 24),
  ('NS(=O)(=O)c1cc(C(=O)O)c(NCc2ccco2)cc1Cl [FUROSEMIDE]', 'Urine volume', 'mL', 26),
  ('CC1(c2ccccc2)Cc2cc(OCC(=O)O)c(Cl)c(Cl)c2C1=O (stereo unspecified) [INDACRINONE]', 'Urine volume', 'mL', 28),
  ('NS(=O)(=O)c1cc2c(cc1Cl)NCNS2(=O)=O [HYDROCHLOROTHIAZIDE]', 'Urine volume', 'mL', 37),
  ('CCC1(C)C(=O)c2cc(OCC(=O)O)c(Cl)c(Cl)c2C1=O (stereo unspecified)', 'Urine volume', 'mL', 30),
  ('CCC1(CC)C(=O)c2cc(OCC(=O)O)c(C)c(Cl)c2C1=O', 'Urine volume', 'mL', 27);

---

Assay: volume of urine at 27 mg/kg
Type: ADME, organism-based
Set-up: dose 27 mg/kg
Details: in vivo
measuredMetric: Urine volume (mL)

INSERT INTO measurements (compound, unittag, readoutvalue) VALUES
  ('Cc1c(OCC(=O)O)cc2c(c1Cl)C(=O)C(C)(C1CCCC1)C2=O (stereo unspecified)', 'mL', 27),
  ('CCC1(C)C(=O)c2cc(OCC(=O)O)c(Cl)c(Cl)c2C1=O (stereo unspecified)', 'mL', 27),
  ('NS(=O)(=O)c1cc(C(=O)O)c(NCc2ccco2)cc1Cl [FUROSEMIDE]', 'mL', 36),
  ('CC1(c2ccccc2)Cc2cc(OCC(=O)O)c(Cl)c(Cl)c2C1=O (stereo unspecified)', 'mL', 31),
  ('CCC1(CC)C(=O)c2cc(OCC(=O)O)c(C)c(Cl)c2C1=O', 'mL', 33),
  ('NS(=O)(=O)c1cc2c(cc1Cl)NCNS2(=O)=O [HYDROCHLOROTHIAZIDE]', 'mL', 32);

---

Experiment: volume of urine at 9 mg/kg
Assay type: ADME, organism-based
Design: dose 9 mg/kg
Conditions: in vivo
measuredMetric: Urine volume (mL)

INSERT INTO assay_data (compound, unittag, readoutvalue) VALUES
  ('CCC1(C)C(=O)c2cc(OCC(=O)O)c(Cl)c(Cl)c2C1=O (stereo unspecified)', 'mL', 29),
  ('CC1(c2ccccc2)Cc2cc(OCC(=O)O)c(Cl)c(Cl)c2C1=O (stereo unspecified)', 'mL', 29),
  ('NS(=O)(=O)c1cc(C(=O)O)c(NCc2ccco2)cc1Cl [FUROSEMIDE]', 'mL', 28),
  ('NS(=O)(=O)c1cc2c(cc1Cl)NCNS2(=O)=O [HYDROCHLOROTHIAZIDE]', 'mL', 30),
  ('CCC1(CC)C(=O)c2cc(OCC(=O)O)c(C)c(Cl)c2C1=O', 'mL', 26),
  ('Cc1c(OCC(=O)O)cc2c(c1Cl)C(=O)C(C)(C1CCCC1)C2=O (stereo unspecified)', 'mL', 27);
